B1: Azoarcus group I ribozyme (parent)
chain: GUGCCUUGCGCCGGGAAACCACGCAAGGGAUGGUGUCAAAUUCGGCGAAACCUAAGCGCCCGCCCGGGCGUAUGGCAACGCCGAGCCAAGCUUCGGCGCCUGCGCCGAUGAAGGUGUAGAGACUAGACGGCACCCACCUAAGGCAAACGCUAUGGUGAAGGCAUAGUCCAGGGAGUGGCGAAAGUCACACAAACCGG

- Variants of: B1
- measurement-notes: reverse-splicing fitness (ratio to wild type); higher = more active; in vitro selection; Mg2+ level not given
Each entry below carries its recorded reverse-splicing fitness.
Reply with the value as a number alone.

Worked examples, 8 variants total:
get_value(item= A111G A145G C150A C169A U176G , readout=reverse-splicing fitness) returns 0.00563

get_value(item= A111G A120G A145G C150G U176A , readout=reverse-splicing fitness) returns 0.0132

get_value(item= C82G A111U A120G A145U C150G C169U U176G , readout=reverse-splicing fitness) returns 0.00505

get_value(item= C82G A111G A120G A145C C150G C169U , readout=reverse-splicing fitness) returns 0.00843

get_value(item= C82U A111C A145C C150G U176G , readout=reverse-splicing fitness) returns 0.00264

get_value(item= C82A A111G A120C A145G C169G , readout=reverse-splicing fitness) returns 0.00928

get_value(item= C82G A120C A145U C150U C169U , readout=reverse-splicing fitness) returns 0.0172

get_value(item= C82G A111U A120C C150A C169G U176A , readout=reverse-splicing fitness) returns 0.0181

New cases:
get_value(item= C82A A111C A120C C150A C169G U176A , readout=reverse-splicing fitness) returns 0.0168

get_value(item= C82U A111U A120C A145G C150A C169A , readout=reverse-splicing fitness) returns 0.0103
